Hey, just so you know, these numbers are from the OligoGym collection.

Molecular target: SMAD1; note: test concentration or dose not given here
Details: ASO
These antisense oligonucleotides have a phosphorothioate backbone; sugars and methylation of C are not fully specified.
# if measured remaining target (mRNA or protein) (fraction of control) < 0.5: True  # else: False

Some solved cases for reference:
• AGTGGCGTTGAGTGGCAT = False
• TTCACCAAAGCATCAACA = True
• CCGCCCGCCTGCTTTCTC = True
• CCTCAGCTGCCAATACCC = True
• AAGGGCTTCCTGGGTCTG = False

Challenge: Here's an entry: GCAGCTCAAGGCCTTTTC . Is its remaining target (mRNA or protein) (fraction of control) below 0.5?
Response given: False

Challenge: # TODO verify remaining target (mRNA or protein) (fraction of control) < 0.5 strictly for this sequence: GTCCAGAAGAGTAGAAAT
Response given: True
